Values of pKi reported for UniProt:P28223 appear below.
Sequence (P28223 whole entry): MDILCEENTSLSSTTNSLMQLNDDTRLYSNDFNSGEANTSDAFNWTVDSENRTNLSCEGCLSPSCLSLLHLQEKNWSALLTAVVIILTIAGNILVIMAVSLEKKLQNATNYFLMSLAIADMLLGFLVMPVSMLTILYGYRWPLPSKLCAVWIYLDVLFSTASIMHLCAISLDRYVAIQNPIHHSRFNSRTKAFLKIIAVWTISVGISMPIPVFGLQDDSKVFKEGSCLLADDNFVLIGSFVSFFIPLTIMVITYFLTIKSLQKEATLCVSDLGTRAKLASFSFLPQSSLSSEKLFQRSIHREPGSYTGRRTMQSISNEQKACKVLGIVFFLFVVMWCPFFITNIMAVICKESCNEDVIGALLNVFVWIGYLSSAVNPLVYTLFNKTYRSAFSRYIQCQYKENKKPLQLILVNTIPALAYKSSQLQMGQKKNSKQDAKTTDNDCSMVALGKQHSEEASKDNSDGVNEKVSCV
As a rule, pKi stands for the negative log10 of the concentration, concentration in M.

Example molecules with recorded pKi:
C[C@@H]1CNC[C@@H]2Cc3ccccc3N21 (stereo in doubt; 7): 7.26
Cc1ccc2c(c1)N1[C@@H](CNC[C@H]1C)C2: 7.66

[in] Return pKi measured with UniProt:P28223 given this molecule: Cc1cccc2c1N1[C@@H](CNC[C@H]1C)C2
[out] 7.37

[in] Return pKi measured with UniProt:P28223 given this molecule: Cc1c(Cl)ccc2c1N1[C@@H](CNC[C@H]1C)C2
[out] 8.59

[in] Return pKi measured with UniProt:P28223 given this molecule: C[C@@H]1CNC[C@H]2Cc3ccc(C(F)(F)F)cc3N21
[out] 8.12

[in] Return pKi measured with UniProt:P28223 given this molecule: Cc1ccc2c(c1C)N1[C@H](CNC[C@H]1C)C2
[out] 6.99

[in] Return pKi measured with UniProt:P28223 given this molecule: C[C@H]1CNC[C@@H]2Cc3ccccc3N21
[out] 6.37

[in] Return pKi measured with UniProt:P28223 given this molecule: C[C@@H]1CNC[C@H]2Cc3ccc(CO)cc3N21
[out] 6.54

[in] Return pKi measured with UniProt:P28223 given this molecule: Clc1ccc2c(c1)N1CCNCC1C2 (configuration not stated)
[out] 7.49

[in] Return pKi measured with UniProt:P28223 given this molecule: CC(=O)Nc1ccc2c(c1)N1[C@@H](CNC[C@H]1C)C2
[out] 5.96

[in] Return pKi measured with UniProt:P28223 given this molecule: Cc1ccc2c(c1C)N1[C@@H](CNC[C@H]1C)C2
[out] 7.47

[in] Return pKi measured with UniProt:P28223 given this molecule: C[C@@H]1CNC[C@@H]2Cc3ccccc3N21 (stereo in doubt; 8)
[out] 7.21
